test system: OVCAR-3; assay: NCI tumour cell line growth inhibition, 48 h
Calls of active or inactive are those of the source. Cut-off read from the data, not from the text of the source: active = GI50 up to about 1.1 µM and inactive = higher.
Pick from active, inactive when you respond.

Illustrative cases are given below, each with its answer.
C/C(=N\O)c1cccc(Nc2c3ccccc3nc3occc23)c1 ... inactive
CC(C)=CCC/C(C)=C/COC(C)(C)C1=CCC(C)CC1.CC(C)=CCC/C(C)=C/COC1CC(C)CCC1=C(C)C (stereo not given) ... inactive

IN: For Cc1c(/C=C2\CC/C(=C\c3[nH]c(C(=O)OC(C)(C)C)c(C)c3C)C2=O)[nH]c(C(=O)OC(C)(C)C)c1C , which call appears in the assay record?
OUT: inactive

IN: Continue with COc1cc([C@@H]2c3cc4c(cc3[C@@H](c3c(O)cc(O)c5c3O[C@H](c3ccc(O)c(O)c3)[C@@H](O)C5)[C@H]3COC(=O)[C@H]23)OCO4)cc(OC)c1OC
OUT: inactive

IN: Continue with CC[C@@]1(O)C(=O)OCc2c1cc1n(c2=O)Cc2c-1nc1ccccc1c2/C=N\NC(=O)C(C)N (stereo not given in full)
OUT: inactive

IN: Continue with CCCCCCc1cc2cc(-c3csc(CC#N)n3)c(=O)oc2cc1O
OUT: inactive

IN: Continue with NC(=O)OCC(COc1ccc(Cl)cc1)OC(=O)c1cc([N+](=O)[O-])cc([N+](=O)[O-])c1 (stereo not given)
OUT: inactive

IN: Continue with CCc1ncc(C(C)(O)c2ccccc2)n1Cc1ccccc1 (stereo not given)
OUT: inactive

IN: Continue with CCOC(=O)C(=C(SC)SC)c1nn2c(=O)cc(C)nc2s1
OUT: inactive

IN: Continue with O=C(Nc1ccccc1)Oc1ccccc1C1CCCCC1
OUT: inactive

IN: Continue with COc1nc(N=P(c2ccccc2)(c2ccccc2)c2ccccc2)cc(=O)n1C
OUT: inactive

IN: Continue with FC(F)(Sc1nc2ccccc2[nH]1)c1nc2ccccc2o1
OUT: inactive

IN: Continue with N#Cc1nc(C(O)c2ccccc2)oc1N (stereo not given)
OUT: inactive

IN: Continue with C[C@]12CCC(N3CCCC3)CC1=CC[C@@H]1[C@@H]2CC[C@]2(C)C(O)[C@H](n3ccnc3)C[C@@H]12 (stereo not given in full)
OUT: inactive

IN: Continue with O=C(O)C1C2CC3CC2CC31 (stereo not given)
OUT: inactive

IN: Continue with CCOC(=O)c1[nH]c(Br)c(-c2ccc(Br)cc2)c1Br
OUT: active

IN: Continue with C=C1C(=O)O[C@@H]2/C=C(\C)CC/C=C(/COC(C)=O)C[C@@H](OC(C)=O)[C@@H]12
OUT: inactive

IN: Continue with CC(C)(C)OC(=O)N/C=C1\C(=O)Oc2ccccc2C1=O
OUT: inactive

IN: Continue with COC(=O)c1cc(NC(=O)Cn2c3ccccc3c3ccccc32)cn1C
OUT: inactive
